From: patent US20260364089A1

# tested_target: KRas G12V (Homo sapiens, UniProt P01116, G12V)
# Construct: Biotinylated KRas G12V (aa 1-169) loaded with GDP nucleotide; biotin (biotinylated)
# Sequence (P01116 1-169 G12V): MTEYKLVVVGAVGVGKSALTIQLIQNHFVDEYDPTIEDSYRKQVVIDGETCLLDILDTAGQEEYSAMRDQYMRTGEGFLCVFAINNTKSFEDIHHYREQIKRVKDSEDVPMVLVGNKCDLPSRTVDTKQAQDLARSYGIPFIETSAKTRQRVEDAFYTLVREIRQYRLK
# measurement_protocol: SOS1-Catalyzed Nucleotide Exchange Assay, KRas G12V (Method 2)
# Assay type: biochemical
# cond: Method 2, B; 5 nM KRas G12V (aa 1-169, GDP-loaded), 50 nM SOS1; read-out: KRas G12V IC50 (nM) (Method 2, B)
parameter: IC50

Previously resolved entries follow.
molecule	result
Nc1cc2c(c(Cl)c1F)CCCCC(=O)NCC1COCCN(C1)c1nc(OC[C@@]34CCCN3C[C@H](F)C4)nc3c(F)c-2c(F)cc13 (stereo partly shown) [Compound 184a]	100 to 1000 nM
Nc1cc2c(c(Cl)c1F)CCCCC(=O)NCCC1(O)CCCN(C1)c1nc(OC[C@@]34CCCN3C[C@H](F)C4)nc3c(F)c-2ccc13 (stereo partly shown) [Compound 180a]	100 to 1000 nM
CN(C)CC1(COc2nc3c4cnc(c(F)c4n2)-c2cc(N)cc(Cl)c2CCCCC(=O)NCCC2CCCN3C2)CC1 (stereo not shown)	100 to 1000 nM
Nc1cc(Cl)c2c(c1)-c1ncc3c(nc(OC[C@@]45CCCN4C[C@H](F)C5)nc3c1F)N1CCOCC(CNC(=O)CCCC2)C1 (stereo partly shown) [Compound 162a]	100 to 1000 nM
O=C1CCCCc2c(Cl)cc3[nH]ncc3c2-c2ncc3c(nc(OC[C@@]45CCCN4C[C@H](F)C5)nc3c2F)N2CCOCC(CN1)C2 (stereo partly shown) [Compound 203a]	≤ 100 nM

Query string: What IC50 value was documented for this molecule, O=C1CCCCc2ccc3[nH]ncc3c2-c2ccc3c(nc(OC[C@@]45CCCN4C[C@H](F)C5)nc3c2F)N2CCCC(CCN1)C2 (stereo partly shown) [Compound 166a] ?
Result string: ≤ 100 nM

Query string: What IC50 value was documented for this molecule, CN(C)CC1(COc2nc3c4ccc(c(F)c4n2)-c2c(c(Cl)cc4[nH]ncc24)CCCCC(=O)NCCC2CCCN3C2)CC1 (single isomer, unassigned) [Compound 197a] ?
Result string: ≤ 100 nM

Query string: What IC50 value was documented for this molecule, Nc1cc2c(cc1F)CCCCC(=O)NCCC1CCCN(C1)c1nc(OC[C@@]34CCCN3C[C@H](F)C4)nc3c(F)c-2ncc13 (single isomer, unassigned) [Compound 159c] ?
Result string: 10000 to 30000 nM
